// data source = patent US20230091225A1

molecular target: androgen receptor (AR) (Homo sapiens, UniProt P10275); assay: Degradation of androgen receptor (AR) protein in VCaP cells by Western blot; assay type: cell-based; conditions: percentage of degraded AR at 100 nM, VCaP cells, 16 h
Sequence (P10275 whole entry): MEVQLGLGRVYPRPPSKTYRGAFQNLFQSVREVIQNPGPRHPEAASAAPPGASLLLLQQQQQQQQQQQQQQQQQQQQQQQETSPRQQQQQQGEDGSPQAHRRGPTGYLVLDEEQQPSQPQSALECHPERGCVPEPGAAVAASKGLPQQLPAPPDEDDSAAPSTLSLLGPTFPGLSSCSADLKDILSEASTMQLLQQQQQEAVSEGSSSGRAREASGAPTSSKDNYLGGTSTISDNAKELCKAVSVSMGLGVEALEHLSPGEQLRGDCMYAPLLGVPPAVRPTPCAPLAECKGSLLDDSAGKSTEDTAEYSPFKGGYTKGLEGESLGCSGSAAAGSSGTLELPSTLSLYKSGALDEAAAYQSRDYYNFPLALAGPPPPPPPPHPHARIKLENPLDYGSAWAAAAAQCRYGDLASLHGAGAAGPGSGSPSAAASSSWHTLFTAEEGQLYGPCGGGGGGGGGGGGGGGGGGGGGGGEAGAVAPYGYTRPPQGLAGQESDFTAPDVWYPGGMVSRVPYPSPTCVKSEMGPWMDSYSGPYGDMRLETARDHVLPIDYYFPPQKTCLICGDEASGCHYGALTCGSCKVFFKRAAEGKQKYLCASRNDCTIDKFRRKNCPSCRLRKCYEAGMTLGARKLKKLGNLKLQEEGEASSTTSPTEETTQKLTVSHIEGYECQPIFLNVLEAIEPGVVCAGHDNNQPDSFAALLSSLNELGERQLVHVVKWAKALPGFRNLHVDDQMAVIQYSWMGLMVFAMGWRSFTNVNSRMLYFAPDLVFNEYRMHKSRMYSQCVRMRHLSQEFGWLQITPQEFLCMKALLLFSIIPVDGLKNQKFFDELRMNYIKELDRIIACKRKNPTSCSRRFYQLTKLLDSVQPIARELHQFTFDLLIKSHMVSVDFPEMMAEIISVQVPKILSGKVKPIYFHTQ
MEASUREMENT_KIND: % degradation

N#Cc1ccc(OC2CCC(NC(=O)c3ccc(N4CCC(CN5CCC6(CC5)CN(c5ccc7c(c5)C(=O)N(C5CCC(=O)NC5=O)C7=O)C6)CC4)nn3)CC2)cc1Cl (stereo not shown); A (>80%)
N#Cc1ccc(OC2CCC(NC(=O)c3cnc(N4C[C@@H]5CN(C6CCN(c7cc8c(cc7F)C(=O)N(C7CCC(=O)NC7=O)C8=O)CC6)C[C@@H]5C4)nc3)CC2)cc1Cl (stereo partly shown); D (<25%)
CC1(C)[C@H](Oc2ccc(C#N)c(Cl)c2)C(C)(C)[C@H]1N1Cc2cc(N3CCC(CN4CCN(c5cc6c(cc5F)CN([C@@H]5CCC(=O)NC5=O)C6=O)CC4)CC3)ccc2C1=O; D (<25%)
N#Cc1ccc(OC2CCC(NC(=O)c3ncc(N4C[C@H]5CC(N6CCN(c7cc8c(cc7F)C(=O)N(C7CCC(=O)NC7=O)C8=O)CC6)C[C@H]5C4)cn3)CC2)cc1Cl (stereo partly shown); C (49%-25%)

stdin: I'm curious: which % degradation was measured for CC1(C)C(Oc2ccc(C#N)c(Cl)c2)C(C)(C)C1N1Cc2nc(N3CCC(CN4CCN(c5cc6c(cc5F)CN([C@@H]5CCC(=O)NC5=O)C6=O)CC4)CC3)ccc2C1=O (stereo partly shown) tested on androgen receptor (AR) (Homo sapiens, UniProt P10275)?
stdout: D (<25%)

stdin: Can you look up % degradation on androgen receptor (AR) (Homo sapiens, UniProt P10275) for CC1(C)C(NC(=O)c2ccc(N3C[C@@H]4C(CN5CCN(c6cc7c(cc6F)C(=O)N(C6CCC(=O)NC6=O)C7=O)CC5)[C@@H]4C3)nn2)C(C)(C)C1Oc1ccc(C#N)c(Cl)c1 (stereo partly shown) ?
stdout: B (79%-50%)

stdin: Record N#Cc1ccc(OC2CCC(NC(=O)c3cnc(N4CCC(NC5CCN(c6cc7c(cc6F)C(=O)N(C6CCC(=O)NC6=O)C7=O)CC5)CC4)cn3)CC2)cc1Cl (stereo not shown) : what is its % degradation with androgen receptor (AR) (Homo sapiens, UniProt P10275)?
stdout: A (>80%)

stdin: API: value(readout=% degradation, system=androgen receptor (AR) (Homo sapiens, UniProt P10275)) for record N#Cc1ccc(O[C@H]2CC[C@@H](NC(=O)c3cnc(N4CCN([C@@H]5C[C@@H]6CN(c7cc8c(cc7F)C(=O)N(C7CCC(=O)NC7=O)C8=O)C[C@@H]6C5)CC4)cn3)CC2)cc1Cl (stereo partly shown)
stdout: C (49%-25%)

stdin: Lab note: need % degradation with androgen receptor (AR) (Homo sapiens, UniProt P10275) for entry N#Cc1ccc(OC2CCC(NC(=O)c3ccc(N4C[C@@H]5C(CN6CCN(c7cc8c(cc7F)C(=O)N(C7CCC(=O)NC7=O)C8=O)CC6)[C@@H]5C4)nn3)CC2)cc1Cl (stereo partly shown) , please look it up.
stdout: B (79%-50%)

stdin: Could you share what % degradation was measured for N#Cc1ccc(OC2CCC(NC(=O)c3ccc(N4C[C@H]5CC(N6CCN(c7cc8c(cc7F)C(=O)N(C7CCC(=O)NC7=O)C8=O)CC6)C[C@H]5C4)nn3)CC2)cc1Cl (stereo partly shown) , tested on androgen receptor (AR) (Homo sapiens, UniProt P10275)?
stdout: D (<25%)
